inhibition at 10 µM: recorded values
Target: Recombinant human calpain I (Homo sapiens, UniProt P07384)
Construct: made in house
Sequence (P07384 1-714): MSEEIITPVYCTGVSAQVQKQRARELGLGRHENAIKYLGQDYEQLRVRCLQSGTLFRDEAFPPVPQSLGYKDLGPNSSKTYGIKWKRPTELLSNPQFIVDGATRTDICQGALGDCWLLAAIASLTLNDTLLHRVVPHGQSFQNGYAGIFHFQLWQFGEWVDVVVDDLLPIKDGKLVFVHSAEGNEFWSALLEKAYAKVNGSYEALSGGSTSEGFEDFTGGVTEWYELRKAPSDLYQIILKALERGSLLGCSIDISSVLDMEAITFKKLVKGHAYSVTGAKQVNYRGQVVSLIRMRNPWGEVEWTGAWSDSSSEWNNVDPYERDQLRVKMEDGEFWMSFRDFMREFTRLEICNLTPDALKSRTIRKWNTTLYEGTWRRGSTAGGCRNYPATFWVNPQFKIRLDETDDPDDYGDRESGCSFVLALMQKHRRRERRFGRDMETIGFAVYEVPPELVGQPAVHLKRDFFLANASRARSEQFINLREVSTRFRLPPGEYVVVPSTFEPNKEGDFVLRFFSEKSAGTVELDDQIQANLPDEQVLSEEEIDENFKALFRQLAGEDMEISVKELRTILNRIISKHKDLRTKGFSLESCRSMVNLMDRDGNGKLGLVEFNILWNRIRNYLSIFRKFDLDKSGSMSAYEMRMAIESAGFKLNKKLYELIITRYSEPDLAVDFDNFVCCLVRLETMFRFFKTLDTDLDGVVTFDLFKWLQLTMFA
Assay: Inhibition of calpain I (Succ-Leu-Tyr-MNA hydrolysis)
Format: biochemical
Conditions: Tables 2-4; values in parentheses; at 10,000 nM
quantityName: inhibition at 10 µM (%)

compound	quantityName	measurementUnits	assayValue
C#CCNC(=O)C(=O)C(Cc1ccccc1)NC(=O)c1cc(C#Cc2ccccc2)nc2ccccc12 (stereo not shown)	inhibition at 10 µM	%	91
O=C(NCc1cccc([N+](=O)[O-])c1)C(=O)C(Cc1ccccc1)NC(=O)c1cc(C#Cc2ccccc2)nc2ccccc12 (stereo not shown)	inhibition at 10 µM	%	95
O=C(NCCCCCCNS(=O)(=O)c1cccc2c(Cl)cccc12)C(=O)C(Cc1ccccc1)NC(=O)c1cc(C#Cc2ccccc2)nc2ccccc12 (stereo not shown)	inhibition at 10 µM	%	84
COCCNC(=O)C(=O)C(CC(C)C)NC(=O)c1cc(C#Cc2ccccc2)nc2ccccc12 (stereo not shown)	inhibition at 10 µM	%	95
O=C(NCCNS(=O)(=O)c1ccccc1)C(=O)C(Cc1ccccc1)NC(=O)c1cc(-c2cccnc2)nc2ccccc12 (stereo not shown)	inhibition at 10 µM	%	99
O=C(NCCCCO)C(=O)C(Cc1ccccc1)NC(=O)c1cc(C#Cc2ccccc2)nc2ccccc12 (stereo not shown)	inhibition at 10 µM	%	100
CC(NC(=O)C(=O)C(Cc1ccccc1)NC(=O)c1cc(C#Cc2ccccc2)nc2ccccc12)c1cccc2ccccc12 (stereo not shown)	inhibition at 10 µM	%	31

====

Target: Recombinant human calpain I (Homo sapiens)
Construct: made in house
Sequence (P07384 1-714): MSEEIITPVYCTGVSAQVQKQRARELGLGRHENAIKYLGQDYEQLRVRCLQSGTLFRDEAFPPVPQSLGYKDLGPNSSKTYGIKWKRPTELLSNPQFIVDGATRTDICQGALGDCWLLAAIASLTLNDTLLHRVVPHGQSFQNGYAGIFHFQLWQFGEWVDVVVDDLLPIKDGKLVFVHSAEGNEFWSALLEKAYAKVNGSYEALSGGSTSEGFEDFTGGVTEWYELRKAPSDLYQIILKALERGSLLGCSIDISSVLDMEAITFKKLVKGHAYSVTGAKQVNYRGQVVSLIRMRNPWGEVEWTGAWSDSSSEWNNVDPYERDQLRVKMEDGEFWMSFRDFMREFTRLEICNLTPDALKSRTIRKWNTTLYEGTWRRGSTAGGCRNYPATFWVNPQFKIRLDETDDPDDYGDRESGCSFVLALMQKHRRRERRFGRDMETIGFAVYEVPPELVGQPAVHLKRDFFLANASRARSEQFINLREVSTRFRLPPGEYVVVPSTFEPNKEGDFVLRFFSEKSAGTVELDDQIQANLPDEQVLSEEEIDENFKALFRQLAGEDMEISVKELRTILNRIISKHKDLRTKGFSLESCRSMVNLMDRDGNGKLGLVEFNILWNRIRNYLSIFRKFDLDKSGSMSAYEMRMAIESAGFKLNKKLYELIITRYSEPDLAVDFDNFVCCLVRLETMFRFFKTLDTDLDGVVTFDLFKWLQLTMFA
Test: Inhibition of calpain I (Succ-Leu-Tyr-MNA hydrolysis)
Type: biochemical
Conditions: Tables 2-4; pH 7.5
pIC50: −log10 of the molar value.
Entries and their pIC50 values follow.
quantityName: pIC50

compound	assayValue
O=C(NCCNS(=O)(=O)C=Cc1ccccc1)C(=O)C(Cc1ccccc1)NC(=O)c1cc(C#Cc2ccccc2)nc2ccccc12 (stereo not drawn) [Example 91]	7.38
O=C(NCCc1ccccc1)C(=O)C(Cc1ccccc1)NC(=O)c1cc(C#Cc2ccccc2)nc2ccccc12 (stereo not drawn) [Example 43]	6.41
O=C(NCCOCCO)C(=O)C(Cc1ccccc1)NC(=O)c1cc(C#Cc2ccccc2)nc2ccccc12 (stereo not drawn) [Example 10]	6.20
O=C(NCCNS(=O)(=O)c1cccnc1)C(=O)[C@H](Cc1ccccc1)NC(=O)c1cc(C#Cc2ccccc2)nc2ccccc12 [Example 87]	7.25
COc1ccc2nc(C)cc(C(=O)NC(Cc3ccccc3)C(=O)C(=O)NCCNS(=O)(=O)c3ccc(-c4ccccn4)s3)c2c1 (single isomer, unassigned) [Example 143]	7.46
CS(=O)(=O)NCCCNC(=O)C(=O)C(Cc1ccccc1)NC(=O)c1cc(C#Cc2ccccc2)nc2ccccc12 (stereo not drawn) [Example 99]	6.89
